variants and their reported one-hybrid fitness for binding NBS DNA
B1: Caulobacter ParB omega fusion; a variant is named by its letters at X, in order, B8GW30 (parent)
chain: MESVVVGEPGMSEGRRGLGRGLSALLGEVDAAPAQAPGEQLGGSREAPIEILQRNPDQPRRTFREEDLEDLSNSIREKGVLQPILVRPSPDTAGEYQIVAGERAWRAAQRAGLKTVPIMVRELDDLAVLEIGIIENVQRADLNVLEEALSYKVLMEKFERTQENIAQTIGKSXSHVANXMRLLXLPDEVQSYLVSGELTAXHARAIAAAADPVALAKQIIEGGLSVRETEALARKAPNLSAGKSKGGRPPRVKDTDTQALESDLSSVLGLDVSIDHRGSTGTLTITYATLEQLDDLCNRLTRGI

Variants of: B1
Assay: one-hybrid fitness for binding NBS DNA (the Noc-binding site; scaled: cognate 1, non-cognate 0); higher = stronger binding
Settings: with NBS DNA site
Whole data set: some 81,000 sequences, median “one-hybrid fitness for binding NBS DNA” near -0.1, cut for the highest 2% near 0.36. This excerpt belongs to a sample that is enriched for the highest values.

Below, each entry is followed by its recorded one-hybrid fitness for binding NBS DNA result.
KINT ≤ 0.2
GNLD ≤ 0.2
RTAR 0.548
QSRP 0.242
TDTW ≤ 0.2
YSAT ≤ 0.2

Qu. Please give the documented one-hybrid fitness for binding NBS DNA of IDNR
Ans. 0.348

Qu. Indicate the recorded one-hybrid fitness for binding NBS DNA value for this variant: RTAH
Ans. ≤ 0.2

Qu. Quickly give me recorded one-hybrid fitness for binding NBS DNA for KSRF
Ans. ≤ 0.2

Qu. Give recorded one-hybrid fitness for binding NBS DNA. RTFR
Ans. 0.441

Qu. Return value of one-hybrid fitness for binding NBS DNA for input RTFN , no commentary.
Ans. ≤ 0.2
